Reference source for all entries: paper PMC8568133

Provide the reported MIC of each item.
Tested on: C. difficile ATCC BAA1870
assayOverview: Broth microdilution MIC, initial antibacterial screening (anaerobic)
Assay type: cell-based, Clostridioides difficile
Procedure: The minimum inhibitory concentrations (MICs) of the tested compounds and control drugs against clinically-relevant bacterial strains were determined using the broth microdilution method, according to guidelines outlined by the Clinical and Laboratory Standards Institute (CLSI), or as described previously. Initial screening of the bisphenylthiazoles against Gram-positive and Gram-negative bacteria. […]
Answers are plain numbers, in µg/mL.

Consider the following items and state reported MIC for each.
1. Cc1nc(-c2ccc(-c3ccccc3)cc2)sc1-c1nnc(NCCN(C)C)o1
2. Cc1nc(-c2ccc(-c3ccccc3)cc2)sc1-c1nnc(N2CCC[C@H]2CO)o1

stdout:
1. 16
2. 64

====

Tested on: E. coli JW55031 (tolC-mutant)
assayOverview: microbe, parasite or virus in culture
Assay type: cell-based, Escherichia coli
assayConditions: E. coli JW55031 (tolC-mutant)
Provide the reported MIC of each item.

Recorded results for 3 compounds are shown here.
>  <compound>
Cc1nc(-c2ccc(-c3ccccc3)cc2)sc1-c1nnc(N2CCC[C@H]2CO)o1 [Compound 20]

>  <MIC>
>64 µg/mL

$$$$
>  <compound>
Cc1nc(-c2ccc(-c3ccccc3)cc2)sc1-c1nnc(NCCN(C)C)o1 [Compound 8]

>  <MIC>
16 µg/mL

$$$$
>  <compound>
Cc1nc(-c2ccc(-c3ccccc3)cc2)sc1-c1nnc(N2CCC[C@@H]2CO)o1 [Compound 21]

>  <MIC>
>64 µg/mL

$$$$

Form: compound = Cc1nc(-c2ccc(-c3ccccc3)cc2)sc1-c1nnc(NCC(=N)N)o1 [Compound 9] ; MIC = >64 µg/mL

====

Tested on: C. difficile ATCC BAA1870
assayOverview: Broth microdilution MIC, initial antibacterial screening (anaerobic)
Format: cell-based, Clostridioides difficile
measurementKind: MIC (µg/mL)
Numbers only, in µg/mL.

>  <molecule>
Cc1nc(-c2ccc(-c3ccccc3)cc2)sc1-c1nnc(N2CCC[C@@H]2C(N)=O)o1

>  <MIC / µg/mL>
64

$$$$

Now consider the entry below.
Form: molecule = Cc1nc(-c2ccc(-c3ccccc3)cc2)sc1-c1nnc(N[C@@H]2CCCC[C@H]2N)o1 (relative stereo) ; MIC = 32

====

Tested on: Candida tropicalis
assayOverview: Antifungal broth microdilution MIC (50% growth inhibition) and MFC
Type: cell-based
assayConditions: Candida tropicalis, ATCC1369; C. tropicalis ATCC 1369; read-out: MIC
measurementKind: MIC (µg/mL)
One number for each entry, in µg/mL.

Recorded results for 3 molecules are shown here.
>  <molecule>
Cc1nc(-c2ccc(-c3ccccc3)cc2)sc1-c1nnc(NCCN)o1

>  <MIC (µg/mL)>
8

$$$$
>  <molecule>
Cc1nc(-c2ccc(-c3ccccc3)cc2)sc1-c1nnc(N[C@@H]2CCCC[C@@H]2N)o1 (relative stereo)

>  <MIC (µg/mL)>
4

$$$$
>  <molecule>
OC(Cn1cncn1)(Cn1cncn1)c1ccc(F)cc1F [Fluconazole, reference compound]

>  <MIC (µg/mL)>
0.5

$$$$

# C[C@@H]1[C@H](O)[C@@H](C)/C=C/C=C/C=C/C=C/C=C/C=C/C=C/[C@H](O[C@@H]2O[C@H](C)[C@@H](O)[C@H](N)[C@@H]2O)C[C@@H]2O[C@](O)(C[C@@H](O)C[C@@H](O)[C@H](O)CC[C@@H](O)C[C@@H](O)CC(=O)O[C@H]1C)C[C@H](O)[C@H]2C(=O)O [Amphotericin B, reference compound] with Candida tropicalis: MIC is 1
